All figures here come from patent US12448399B2.

Item-by-item account of Dmax
target: KRas-G12D (Homo sapiens, UniProt P01116, G12D); construct: insert the HiBiT tag onto the N-terminus of one or more of the endogenous KRas alleles; host or cells: AsPC-1 HiBiT-KRasG12D knock-in clone (one tagged allele, two untagged KRasG12D alleles); experiment: HiBiT Degradation Assay (G12D), AsPC-1 HiBiT-KRasG12D cells, 24 hr; assay type: cell-based; conditions: ASPC1, AsPC-1 cells, maximum degradation observed
Sequence (P01116 1-188 isoform P01116-2 G12D): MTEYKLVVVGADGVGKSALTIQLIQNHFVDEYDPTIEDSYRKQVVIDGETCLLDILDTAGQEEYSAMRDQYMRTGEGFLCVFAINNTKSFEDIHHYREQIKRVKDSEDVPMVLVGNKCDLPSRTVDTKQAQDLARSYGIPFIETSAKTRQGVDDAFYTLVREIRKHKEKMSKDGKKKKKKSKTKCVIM

Sample records with Dmax:
Molecule	Endpoint Value
CCc1cccc2cc(O)cc(-c3ncc4c(N5CC6CCC(C5)N6C)nc(OC[C@@]56CCCN5[C@H](COC(=O)N5CCN(c7ccc8c(c7)CN(C7CCC(=O)NC7=O)C8=O)CC5)CC6)nc4c3F)c12 (stereo partly drawn)	≤ 25%
C#Cc1c(F)ccc2cc(O)cc(-c3ncc4c(N5CC6CCC(C5)N6)nc(OCCN5CCC(CN6CCN(CC7CCN(c8ccc9c(c8F)CN(C8CCC(=O)NC8=O)C9=O)CC7)CC6(C)C)CC5)nc4c3F)c12 (stereo not drawn)	> 70%

// next entry
Under KRas-G12D (Homo sapiens, UniProt P01116, G12D): Dmax value of C#Cc1c(F)ccc2cc(O)cc(-c3ncc4c(N5CC6CCC(C5)N6)nc(OCCN5CCC(CN6CCC(CC7CCN(c8ccc9c(c8F)n(C)c(=O)n9C8CCC(=O)NC8=O)CC7)CC6)CC5)nc4c3F)c12 (stereo not drawn) ?
> 70%

====

biological target: KRas-G12D (Homo sapiens, UniProt P01116, G12D); construct: insert the HiBiT tag onto the N-terminus of one or more of the endogenous KRas alleles; host or cells: AsPC-1 HiBiT-KRasG12D knock-in clone (one tagged allele, two untagged KRasG12D alleles); test: HiBiT Degradation Assay (G12D), AsPC-1 HiBiT-KRasG12D cells, 24 hr; format: cell-based; settings: AsPC-1 cells
DC50 values for the compounds below.

These recorded examples may help you get a feel for the data.
Compound	DC50
C#Cc1c(F)ccc2cc(O)cc(-c3ccc4c(N5CC6CCC(C5)N6)nc(OCCN5CCC(CN6CCC(CC7CCN(c8ccc9c(c8)n(C)c(=O)n9C8CCC(=O)NC8=O)CC7)CC6)CC5)nc4c3F)c12 (stereo not shown)	< 5100 nM
CCc1cccc2cc(O)cc(-c3ncc4c(N5CC6CCC(C5)N6)nc(OCCN5CCC(CN6CCN(c7ccc8c(c7)C(=O)N(C7CCC(=O)NC7=O)C8=O)CC6)CC5)nc4c3F)c12 (stereo not shown)	250 to 1000 nM
C#Cc1c(F)ccc2cc(O)cc(-c3ncc4c(N5CC6CCC(C5)N6)nc(OCCN5CCC(F)(CC6CCN(CC7CCN(c8ccc9c(c8)CN(C8CCC(=O)NC8=O)C9=O)CC7)CC6)CC5)nc4c3F)c12 (stereo not shown)	< 5100 nM

Bench note: what DC50 did C#Cc1c(F)ccc2cc(O)cc(-c3ncc4c(N5CC6CCC(C5)N6)nc(OC[C@@H](C)N5CCC(CC6CCN(CC7CCN(c8ccc9c(c8)n(C(C)C)c(=O)n9C8CCC(=O)NC8=O)CC7)CC6)CC5)nc4c3F)c12 (stereo partly shown) show?
< 5100 nM

====

Entries and their DC50
biological target: KRas-G12D (Homo sapiens, UniProt P01116, G12D); construct: insert the HiBiT tag onto the N-terminus of one or more of the endogenous KRas alleles; host or cells: AsPC-1 HiBiT-KRasG12D knock-in clone (one tagged allele, two untagged KRasG12D alleles); experiment: HiBiT Degradation Assay (G12D), AsPC-1 HiBiT-KRasG12D cells, 24 hr; type: cell-based; details: AsPC-1 cells

Study these solved cases before continuing.
Compound	DC50
C#Cc1c(F)ccc2cc(O)cc(-c3ncc4c(N5CC6CCC(C5)N6)nc(OCCN5CCC(CC6CCN(c7cccc8c7n(C)c(=O)n8C7CCC(=O)NC7=O)CC6)CC5)nc4c3F)c12 (centres unmarked)	< 5.1 µM
C#Cc1c(F)ccc2cc(O)cc(-c3ccc4c(N5CC6CCC(C5)N6)nc(OCCN5CCC(CN6CCC(CC7CCN(c8ccc9c(c8F)n(C)c(=O)n9C8CCC(=O)NC8=O)CC7)CC6)CC5)nc4c3F)c12 (centres unmarked)	< 5.1 µM
C#Cc1c(F)ccc2cc(O)cc(-c3ncc4c(N5CC6CCC(C5)N6)nc(OCC5(CN6CCC(CC7CCN(CC8CCN(c9ccc%10c(c9)n(C)c(=O)n%10C9CCC(=O)NC9=O)CC8)CC7)CC6)CC5)nc4c3F)c12 (centres unmarked)	< 5.1 µM
CCc1cccc2cc(O)cc(-c3ncc4c(N5CC6CCC(C5)N6)nc(OCCN5CCC6(CC5)CCN(c5ccc7c(c5)C(=O)N(C5CCC(=O)NC5=O)C7=O)CC6)nc4c3F)c12 (centres unmarked)	0.25 to 1 µM

Quick check: DC50 of C#Cc1c(F)ccc2cc(O)cc(-c3ncc4c(N5CC6CCC(C5)N6)nc(OC[C@H](C)N5CCC(CC6CCN(CC7CCN(c8ccc9c(c8)n(C(C)C)c(=O)n9C8CCC(=O)NC8=O)CC7)CC6)CC5)nc4c3F)c12 (some centres unmarked) ?
< 5.1 µM
